Biological target: Mu-type opioid receptor (Rattus norvegicus, UniProt P33535)
Sequence (P33535 whole entry): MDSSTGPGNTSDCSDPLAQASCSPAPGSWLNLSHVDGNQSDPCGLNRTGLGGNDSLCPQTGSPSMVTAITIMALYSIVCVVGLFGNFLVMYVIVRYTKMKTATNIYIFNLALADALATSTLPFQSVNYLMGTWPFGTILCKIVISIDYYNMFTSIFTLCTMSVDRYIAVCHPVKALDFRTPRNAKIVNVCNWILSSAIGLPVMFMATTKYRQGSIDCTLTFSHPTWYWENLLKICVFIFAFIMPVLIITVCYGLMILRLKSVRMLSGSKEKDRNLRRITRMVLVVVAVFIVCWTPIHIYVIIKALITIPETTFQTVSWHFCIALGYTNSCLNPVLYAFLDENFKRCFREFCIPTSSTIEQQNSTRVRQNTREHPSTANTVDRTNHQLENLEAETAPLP
Test: Binding affinity towards mu opioid receptor using [3H]- -DAMGO (1.5 nM) as radioligand in rat brain membranes
Readout: IC50

Use the examples below as a reference point.
>>> result("CCN(CC)C(=O)c1ccc(C(c2ccccc2)N2CCN(CC3CCc4ccccc4C3)CC2)cc1 (centres undefined)")
"6.24 µM"
>>> result("C=CCN1CCN(C(c2ccccc2)c2ccc(C(=O)N(CC)CC)cc2)CC1 (stereo in doubt; 2)")
"> 10 µM"
>>> result("CCN(CC)C(=O)c1ccc(C(c2ccccc2)N2CCN(c3ccc(O)cc3)CC2)cc1 (centres undefined)")
"> 10 µM"
>>> result("CCN(CC)C(=O)c1ccc([C@H](c2ccccc2)N2C[C@@H](C)N(Cc3ccc4c(c3)OCO4)C[C@@H]2C)cc1")
"0.702 µM"
>>> result("CCCN1CCN(C(c2ccccc2)c2ccc(C(=O)N(CC)CC)cc2)CC1 (centres undefined)")
"> 10 µM"
>>> result("C=CCN1CCN(C(c2ccccc2)c2ccc(C(=O)N(CC)CC)cc2)CC1 (stereo in doubt; 7 {1} (2))")
"> 50 µM"

Would you kindly share the measured IC50 for CCN(CC)C(=O)c1ccc(C(c2ccccc2)N2CCN(CCO)CC2)cc1 (centres undefined) ? > 10 µM

Would you kindly share the measured IC50 for CCN(CC)C(=O)c1ccc(C(c2ccccc2)N2CCN(Cc3ccc4c(c3)OCO4)CC2)cc1 (centres undefined) ? > 10 µM

Would you kindly share the measured IC50 for CCN(CC)C(=O)c1ccc(C(c2ccccc2)N(CCN(C)C)Cc2ccccc2)cc1 (centres undefined) ? > 10 µM
